# target system: KRAS-WT (Homo sapiens, UniProt P01116)
# Sequence (P01116 with tags, fused parts or gaps isoform P01116-2): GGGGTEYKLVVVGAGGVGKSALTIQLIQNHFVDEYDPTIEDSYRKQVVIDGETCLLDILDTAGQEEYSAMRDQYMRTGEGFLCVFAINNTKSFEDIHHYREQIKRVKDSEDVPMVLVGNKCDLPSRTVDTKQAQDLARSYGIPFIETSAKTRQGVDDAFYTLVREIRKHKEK
# test method notes: SOS-catalyzed nucleotide exchange assay (Procedure A, TR-FRET), KRAS-WT
# Assay type: biochemical
# condition summary: nucleotide exchange, read-out: KRAS WT GNE IC50
Reported values of pIC50 for individual entries
In textbook form, pIC50 equals minus log to base ten of the concentration in mol/L.

Solved entries (count: 3):
compound: Cc1cc2[nH]ncc2c(-c2nccc3c2sc2nc(OC[C@@]45CCCN4C[C@H](F)C5)nc(N4CCOC[C@@](C)(O)C4)c23)c1C(C)(F)F
pIC50: 6.59
--
compound: CCc1c(C)cc2[nH]ncc2c1-c1nccc2c1sc1nc(OC[C@@]34CCCN3C[C@H](F)C4)nc(N3CCOC[C@@](C)(O)C3)c12
pIC50: 6.48
--
compound: CC1(C)C2CN(C[C@@]3(COc4nc(N5CCOC[C@@](C)(O)C5)c5c(n4)sc4c(-c6c(C7(F)CC7)c(Cl)cc7[nH]ncc67)nccc45)CC3(F)F)CC21 (stereo partly drawn)
pIC50: 6.41

# input Can you share its pIC50? I mean this compound: CC(C)(C)c1c(Cl)cc2[nH]ncc2c1-c1nccc2c1sc1nc(OC[C@@]34CCCN3C[C@H](F)C4)nc(N3CCOC[C@@](C)(O)C3)c12
# output 7.72

# input Another compound to look at: CCC1(F)c2c(cc3[nH]ncc3c2-c2nccc3c2sc2nc(OC[C@@]45CCCN4C[C@H](F)C5)nc(N4CCOC[C@@](C)(O)C4)c23)CC1(F)F (stereo partly drawn)
# output 7.21

# input Another compound to look at: C[C@@]1(O)COCCN(c2nc(OC[C@]34C[C@@H](F)CN3CC3(CC3)C4)nc3sc4c(-c5c(C6CC6)c(Cl)cc6[nH]ncc56)nccc4c23)C1
# output 7.14
